The entries below come with measured MIC values attached.
# Tested on: S. aureus FDA 209P
# assayOverview: Antibacterial activity (MIC), Japan Society of Chemotherapy standard method
# Format: cell-based
# conditionSet: Staphylococcus aureus, FDA209P, read-out: MIC

Look over these answered cases.
[
  {
    "compound": "COc1c(N2CC[C@@H](C(N)c3ccccc3)C2)c(F)cc2c(=O)c(C(=O)O)cn([C@@H]3C[C@@H]3F)c12 (stereo partly drawn) [Example 3]",
    "targetSystem": "S. aureus FDA 209P",
    "attributeMeasured": "MIC",
    "result": "≤ 0.003 µg/mL"
  },
  {
    "compound": "Cc1c(N2CC[C@@H]([C@H](C)N)C2)c(F)c(N)c2c(=O)c(C(=O)O)cn([C@@H]3C[C@@H]3F)c12 [Control drug 1, reference compound]",
    "targetSystem": "S. aureus FDA 209P",
    "attributeMeasured": "MIC",
    "result": "≤ 0.003 µg/mL"
  }
]

Consider now this further compound.
Query: Report MIC on S. aureus FDA 209P for this entry: C[C@H]1COc2c(N3CCN(C)CC3)c(F)cc3c(=O)c(C(=O)O)cn1c23 [LVFX, levofloxacin, reference compound]
Result: 0.2 µg/mL

---

The entries below come with measured MIC values attached.
# Test system: K. pneumoniae TYPE 1
# assayOverview: Antibacterial activity (MIC), Japan Society of Chemotherapy standard method
# Assay type: cell-based
# conditionSet: Klebsiella pneumoniae, TYPE1, K. pneumoniae TYPE 1; read-out: MIC
Give the number; µg/mL is assumed, so skip it.

Look over these answered cases.
[
  {
    "compound": "C[C@H]1COc2c(N3CCN(C)CC3)c(F)cc3c(=O)c(C(=O)O)cn1c23 [LVFX, levofloxacin, reference compound]",
    "targetSystem": "K. pneumoniae TYPE 1",
    "MIC, µg/mL": 0.1
  },
  {
    "compound": "Cc1c(N2CC[C@@H](C(N)c3cccnc3)C2)c(F)c(N)c2c(=O)c(C(=O)O)cn([C@@H]3C[C@@H]3F)c12 (stereo partly drawn) [Example 20]",
    "targetSystem": "K. pneumoniae TYPE 1",
    "MIC, µg/mL": 0.05
  }
]

Consider now this further compound.
Query: Consider the compound COc1c(N2CC[C@@H](C(N)c3ccccc3)C2)ccc2c(=O)c(C(=O)O)cn([C@@H]3C[C@@H]3F)c12 (stereo partly drawn) [Example 6] . State its measured MIC.
Result: 0.05
